# testSummary: Drug excretion in human bile at 20 mg, po measured during 3 to 8 hrs
# Assay type: ADME, organism-based
# runParameters: read-out: Drug excretion
The molecules listed here are annotated with their dose excreted.
Number in %, nothing else.

{"molecule": "COc1ccc(OC(=O)N(CC(=O)O)Cc2ccc(OCCc3nc(-c4ccccc4)oc3C)cc2)cc1 [MURAGLITAZAR]", "unitLabel": "%", "dose excreted": 39.9}

# input for lookup
Identify the reported dose excreted for the following entry. COc1ccc(OC(=O)N(CC(=O)O)[C@@H](C)c2ccc(OCCc3nc(-c4ccccc4)oc3C)cc2)cc1 [PELIGLITAZAR]
24.4
